- Measured target: CNOT4 CCR4-NOT transcription complex subunit 4 (Homo sapiens)
- Construct: isoTOP-ABPP experiments performed in cell lysates (in vitro); endogenous in cells; host or cells: MDA-MB-231 soluble lysate
- Sequence (O95628 whole entry, one chain of several): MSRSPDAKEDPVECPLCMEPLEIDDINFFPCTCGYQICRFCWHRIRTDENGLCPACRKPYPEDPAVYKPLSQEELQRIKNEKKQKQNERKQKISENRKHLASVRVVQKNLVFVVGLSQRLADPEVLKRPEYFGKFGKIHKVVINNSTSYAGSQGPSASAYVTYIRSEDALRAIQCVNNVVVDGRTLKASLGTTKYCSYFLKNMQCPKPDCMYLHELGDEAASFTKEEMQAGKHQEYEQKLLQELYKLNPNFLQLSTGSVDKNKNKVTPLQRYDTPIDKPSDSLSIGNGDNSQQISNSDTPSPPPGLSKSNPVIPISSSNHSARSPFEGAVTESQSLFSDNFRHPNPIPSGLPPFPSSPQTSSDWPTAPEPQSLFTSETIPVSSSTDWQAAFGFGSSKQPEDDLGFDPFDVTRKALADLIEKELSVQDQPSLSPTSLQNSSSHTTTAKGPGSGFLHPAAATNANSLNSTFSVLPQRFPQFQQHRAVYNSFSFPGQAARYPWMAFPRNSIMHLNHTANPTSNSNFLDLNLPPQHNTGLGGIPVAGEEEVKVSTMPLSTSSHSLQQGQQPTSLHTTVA
- Procedure text: competitive isoTOP-ABPP
- Type: binding
- Test settings: O95628_K134; 50 uM, 231 sol, in vitro
Test readout: R value (DMSO/fragment) for probe 1 labeling

Entry COc1cc(CCC(=O)Oc2c(F)c(F)c(F)c(F)c2F)cc(OC)c1OC [fragment 23] has what R value (DMSO/fragment) for probe 1 labeling?
1.2

Could you do the same for O=C(Oc1c(F)c(F)c(F)c(F)c1F)C(c1ccccc1)c1ccccc1 [fragment 20, Pentafluorophenyl 2,2-diphenylacetate] , please?
0.9

Please answer likewise for O=C(Oc1c(F)c(F)c(F)c(F)c1F)c1cc(C(F)(F)F)cc(C(F)(F)F)c1 [fragment 21]
1.2

And for Cn1cc(CC(=O)Oc2c(F)c(F)c(F)c(F)c2F)c2ccccc21 [fragment 22] ?
1.4

Lookup O=C(CCc1cn(-c2ccccc2)nc1-c1ccccc1)Oc1c(F)c(F)c(F)c(F)c1F [fragment 19]
1.1

###

- Measured target: ABHD10 Abhydrolase domain-containing protein 10, mitochondrial (Homo sapiens, UniProt Q9NUJ1)
- Construct: endogenous in cells; host or cells: MDA-MB-231 lysate
- Sequence (Q9NUJ1 53-306): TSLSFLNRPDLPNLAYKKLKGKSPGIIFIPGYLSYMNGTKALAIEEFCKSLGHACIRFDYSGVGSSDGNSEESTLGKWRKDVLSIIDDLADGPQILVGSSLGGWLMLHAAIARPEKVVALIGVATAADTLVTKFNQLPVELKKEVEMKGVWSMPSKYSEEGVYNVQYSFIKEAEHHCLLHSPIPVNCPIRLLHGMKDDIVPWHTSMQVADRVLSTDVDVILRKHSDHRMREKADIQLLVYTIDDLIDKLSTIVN
- Procedure text: competitive isoTOP-ABPP
- Format: binding
- Test settings: 50 uM, in vitro, sol, 231
- Description: In vitro covalent fragment treatment for isoTOP-ABPP. All compounds were made up as solutions in DMSO (100×) and were used at a final concentration of 50 μM for activated esters and 100 μM for guanidinylating agents. […] R value calculation and processing. The ratios of light and heavy MS1 peaks for each unique peptide were quantified with a CIMAGE software using default parameters (3 MS1 acquisitions per peak and signal to noise threshold set to 2.5). […]
Test readout: isoTOP-ABPP ratio (R) at liganded lysine Q9NUJ1_K185

Name the reported isoTOP-ABPP ratio (R) at liganded lysine Q9NUJ1_K185 value associated with the compound `O=C(Oc1ccc([N+](=O)[O-])cc1[N+](=O)[O-])c1ccc(-c2ccccc2)cc1`
1.2

Same read-out for O=C(Oc1ccc([N+](=O)[O-])cc1[N+](=O)[O-])c1ccc(Oc2ccccc2)cc1 [fragment 39, 2,4-Dinitrophenyl 4-phenoxybenzoate] ?
1.0

Next compound: `O=C(Oc1ccc([N+](=O)[O-])cc1[N+](=O)[O-])c1ccccc1Nc1cccc(C(F)(F)F)c1`
0.9

Then this compound: O=C(Oc1ccc([N+](=O)[O-])cc1[N+](=O)[O-])C(c1ccccc1)(c1ccccc1)c1ccccc1 [fragment 42, 2,4-Dinitrophenyl 2,2,2-triphenylacetate]
1.0

Continue with `O=C(Oc1ccc([N+](=O)[O-])cc1[N+](=O)[O-])C1CCN(C(=O)OCc2ccccc2)CC1`
1.5

Try this compound too: `O=C(Oc1ccc([N+](=O)[O-])cc1[N+](=O)[O-])c1ccc2ccccc2n1`
1.3

Would you mind doing CC(=O)Oc1ccc([N+](=O)[O-])cc1[N+](=O)[O-] [fragment 43, 2,4-Dinitrophenyl acetate] as well?
1.3

###

- Measured target: PLIN3 Perilipin-3 (Homo sapiens, UniProt O60664)
- Construct: isoTOP-ABPP experiments performed in cell lysates (in vitro); endogenous in cells; host or cells: MDA-MB-231 soluble lysate
- Sequence (O60664 1-434): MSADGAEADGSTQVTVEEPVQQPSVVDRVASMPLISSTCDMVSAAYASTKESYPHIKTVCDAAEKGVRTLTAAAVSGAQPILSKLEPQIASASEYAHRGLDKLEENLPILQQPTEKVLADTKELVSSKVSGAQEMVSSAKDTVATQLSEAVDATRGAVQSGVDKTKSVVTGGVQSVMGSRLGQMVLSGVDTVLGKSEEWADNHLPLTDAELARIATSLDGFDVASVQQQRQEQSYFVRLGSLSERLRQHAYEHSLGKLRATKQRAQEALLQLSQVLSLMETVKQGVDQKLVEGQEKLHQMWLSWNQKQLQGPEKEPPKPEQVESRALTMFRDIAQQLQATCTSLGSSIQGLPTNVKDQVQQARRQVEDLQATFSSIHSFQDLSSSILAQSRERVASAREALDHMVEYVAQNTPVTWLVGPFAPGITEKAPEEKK
- Procedure text: competitive isoTOP-ABPP
- Assay type: binding
- Test settings: 50 uM_231_sol_in vitro
- Description: In vitro covalent fragment treatment for isoTOP-ABPP. All compounds were made up as solutions in DMSO (100×) and were used at a final concentration of 50 μM for activated esters and 100 μM for guanidinylating agents. […] R value calculation and processing. The ratios of light and heavy MS1 peaks for each unique peptide were quantified with a CIMAGE software using default parameters (3 MS1 acquisitions per peak and signal to noise threshold set to 2.5). […]
Test readout: isoTOP-ABPP ratio, lysine O60664_K257
Answer using only a numeral; do not append any unit.

Can you look up the measured isoTOP-ABPP ratio, lysine O60664_K257 of N#Cc1ccc(C(=O)Oc2ccc([N+](=O)[O-])cc2[N+](=O)[O-])cc1 [fragment 44, 2,4-Dinitrophenyl 4-cyanobenzoate] for me?
1.9

And then NC(=O)c1cc(C(F)(F)F)cc(C(F)(F)F)c1 [fragment 51, reference compound] , what is it?
1.0

What about `O=C(ON1C(=O)CCC1=O)c1cc(C(F)(F)F)cc(C(F)(F)F)c1` ?
0.6

Next: `O=C(CCc1ccc2c(c1)OCO2)Oc1ccc([N+](=O)[O-])cc1[N+](=O)[O-]`
2.5

###

- Measured target: G6PD Glucose-6-phosphate 1-dehydrogenase (Homo sapiens)
- Construct: isoTOP-ABPP experiments performed in cell lysates (in vitro); endogenous in cells; host or cells: MDA-MB-231 soluble lysate
- Sequence (P11413 whole entry): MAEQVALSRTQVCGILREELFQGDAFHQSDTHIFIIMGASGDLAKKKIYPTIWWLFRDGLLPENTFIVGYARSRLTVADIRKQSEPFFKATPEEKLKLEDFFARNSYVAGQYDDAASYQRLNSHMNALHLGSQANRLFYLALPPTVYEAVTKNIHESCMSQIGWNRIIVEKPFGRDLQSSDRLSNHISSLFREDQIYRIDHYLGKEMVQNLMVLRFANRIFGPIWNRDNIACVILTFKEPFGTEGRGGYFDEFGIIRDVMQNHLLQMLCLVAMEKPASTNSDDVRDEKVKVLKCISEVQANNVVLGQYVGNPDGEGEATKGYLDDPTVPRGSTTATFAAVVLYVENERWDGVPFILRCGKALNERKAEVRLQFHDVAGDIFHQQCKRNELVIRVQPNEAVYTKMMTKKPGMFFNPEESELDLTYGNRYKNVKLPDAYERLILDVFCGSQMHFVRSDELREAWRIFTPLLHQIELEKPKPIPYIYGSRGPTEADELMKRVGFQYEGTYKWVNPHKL
- Procedure text: competitive isoTOP-ABPP
- Assay type: binding
- Test settings: 50 uM_231_sol_in vitro
Test readout: isoTOP-ABPP ratio, lysine P11413_K171
Write the value as a bare number.

Dear colleague, I am looking for the recorded isoTOP-ABPP ratio, lysine P11413_K171 of the following molecule: N#Cc1ccc(C(=O)Oc2ccc([N+](=O)[O-])cc2[N+](=O)[O-])cc1 [fragment 44, 2,4-Dinitrophenyl 4-cyanobenzoate]
1.3

And then `O=C(ON1C(=O)CCC1=O)c1cc(C(F)(F)F)cc(C(F)(F)F)c1` , what is it?
0.9

Here is the next molecule: `O=C(Oc1c(F)c(F)cc(F)c1F)c1cc(C(F)(F)F)cc(C(F)(F)F)c1`
0.9

Would you kindly repeat that for `O=C(CCc1ccc2c(c1)OCO2)Oc1ccc([N+](=O)[O-])cc1[N+](=O)[O-]` ?
1.1

Also `O=C(Oc1c(F)c(F)c(C(F)(F)F)c(F)c1F)c1cc(C(F)(F)F)cc(C(F)(F)F)c1` , if possible.
1.0

// next record NC(=O)c1cc(C(F)(F)F)cc(C(F)(F)F)c1 [fragment 51, reference compound]
0.9

###

- Measured target: PFKL 6-phosphofructokinase, liver type (Homo sapiens, UniProt P17858)
- Construct: isoTOP-ABPP experiments performed in cell lysates (in vitro); endogenous in cells; host or cells: soluble proteome of human cancer cell lines (MDA-MB-231; Ramos and Jurkat also prepared)
- Sequence (P17858 whole entry): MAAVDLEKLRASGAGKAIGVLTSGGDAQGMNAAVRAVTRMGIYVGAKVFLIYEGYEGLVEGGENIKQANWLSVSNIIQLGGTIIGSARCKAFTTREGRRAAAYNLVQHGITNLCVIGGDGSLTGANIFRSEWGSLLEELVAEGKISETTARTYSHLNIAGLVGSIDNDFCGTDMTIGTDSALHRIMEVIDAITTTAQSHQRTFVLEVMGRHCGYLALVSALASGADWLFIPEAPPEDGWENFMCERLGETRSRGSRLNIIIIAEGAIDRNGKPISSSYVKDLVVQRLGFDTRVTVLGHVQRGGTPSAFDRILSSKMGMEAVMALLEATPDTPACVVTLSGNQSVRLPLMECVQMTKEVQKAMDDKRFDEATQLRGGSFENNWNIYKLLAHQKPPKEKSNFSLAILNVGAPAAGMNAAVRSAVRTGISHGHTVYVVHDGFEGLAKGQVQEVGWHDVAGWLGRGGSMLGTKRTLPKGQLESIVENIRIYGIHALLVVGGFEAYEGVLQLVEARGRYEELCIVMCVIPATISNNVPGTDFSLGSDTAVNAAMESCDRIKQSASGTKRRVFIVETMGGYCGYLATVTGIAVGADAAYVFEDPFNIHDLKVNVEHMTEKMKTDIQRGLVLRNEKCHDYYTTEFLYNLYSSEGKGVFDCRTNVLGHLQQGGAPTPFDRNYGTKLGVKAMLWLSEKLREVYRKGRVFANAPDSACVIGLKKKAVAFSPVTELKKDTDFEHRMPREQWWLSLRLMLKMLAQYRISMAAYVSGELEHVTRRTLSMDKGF
- Procedure text: competitive isoTOP-ABPP
- Type: binding
- Test settings: 50 uM_231_sol_in vitro; possible other lysine P17858_K681
Test readout: isoTOP-ABPP ratio, lysine P17858_K677
Give the figure only, with no unit attached.

Recorded isoTOP-ABPP ratio, lysine P17858_K677 of `O=C(CCc1ccc2c(c1)OCO2)Oc1ccc([N+](=O)[O-])cc1[N+](=O)[O-]` , please.
2.9

What do you have for `O=C(Oc1c(F)c(F)c(C(F)(F)F)c(F)c1F)c1cc(C(F)(F)F)cc(C(F)(F)F)c1` ?
1.0

Same question for `O=C(ON1C(=O)CCC1=O)c1cc(C(F)(F)F)cc(C(F)(F)F)c1` please.
1.4

Try this compound too: `O=C(Oc1c(F)c(F)cc(F)c1F)c1cc(C(F)(F)F)cc(C(F)(F)F)c1`
0.9

What would you report for N#Cc1ccc(C(=O)Oc2ccc([N+](=O)[O-])cc2[N+](=O)[O-])cc1 [fragment 44, 2,4-Dinitrophenyl 4-cyanobenzoate] ?
1.7

How about NC(=O)c1cc(C(F)(F)F)cc(C(F)(F)F)c1 [fragment 51, reference compound] ?
0.9
